Tested on: UO-31 renal
Assay: NCI-60 one-dose screen, 48 h (100 = growth as untreated, 0 = no growth, -100 = all killed)
Settings: 10 µM unless noted
About 83,000 compounds went through this panel and 20% of them were active in at least one assay; those are over-represented in the sample as a whole.
readout_name: growth (%)

compound=CC(=O)c1c(C)nc(-c2cc(C)cc(Cl)c2)nc1-c1cccc(Oc2ccccc2)c1 readout_name=growth experimental_result=85.2
compound=Cc1nc2ccc(Nc3nc(Cl)nc(N4CCOCC4)n3)cc2n1Cc1ccccc1 readout_name=growth experimental_result=73.8
compound="N#CC1=C(N)Oc2nc[nH]c(=O)c2C1c1cccs1 (stereo unspecified)" readout_name=growth experimental_result=97.1
compound=Cc1cc2nc3c(=O)[nH]c(=O)nc-3n(CC=O)c2cc1C readout_name=growth experimental_result=106
compound=CNCCCNc1ccnc2cc(Cl)ccc12 readout_name=growth experimental_result=-34.4
compound=CCCCN(CCCC)CCC(=O)c1ccc(OC)c2ccccc12 readout_name=growth experimental_result=57.9
compound="CCOc1c(C#N)c2c(N)ncnc2n1C1OC(CO)C(O)C1O (stereo unspecified)" readout_name=growth experimental_result=6.4
compound=CCOC(=O)C(Nc1ccccc1)C(=O)OCC readout_name=growth experimental_result=74.8
compound=COc1cc2nccc(Oc3ccc(NC(=O)C4(C(=O)Nc5ccc(F)cc5)CC4)cc3)c2cc1OC(=O)c1ccc(N)cc1 readout_name=growth experimental_result=9.18
compound="COc1cc2c(cc1OC)C(=O)C(Br)CC2 (stereo unspecified)" readout_name=growth experimental_result=39.4
compound="COc1ccc2c(c1)CCCC21C(=O)Nc2ccccc21 (stereo unspecified)" readout_name=growth experimental_result=82.4
compound=O=C1c2ccccc2C(=O)c2c1oc1ccc3ccccc3c21 readout_name=growth experimental_result=61
compound="CC1=C(C(=O)Nc2ccc(F)cc2)C(c2ccc(Cl)cc2)C2=C(CC(C)(C)CC2=O)N1 (stereo unspecified)" readout_name=growth experimental_result=64
compound=CCOCC(O)(c1ccc(Cl)cc1)c1ccc(Cl)cc1 readout_name=growth experimental_result=91.3
compound=Cc1cc(C)c([O-])c(CN(C)CCN(C)Cc2cc(C)cc(C)c2[O-])c1.O=C([O-])c1cccc(C(=O)[O-])n1.[Ti+4] readout_name=growth experimental_result=-9.59
compound=O=C1/C(=C\c2cccn2C(=O)c2ccccc2)c2ccccc2N1c1c(Cl)cccc1Cl readout_name=growth experimental_result=66.8
compound=[O-]/[N+](=C\c1ccccc1)CC1(O)CCCCC1 readout_name=growth experimental_result=96.3
compound="CCCCN(CCCC)CCC(O)c1cc2ccc(C(F)(F)F)cc2c2cc(C(F)(F)F)ccc12 (stereo unspecified)" readout_name=growth experimental_result=19.6
compound=COc1cc(C)c2c(=O)c3c(oc2c1)C(=O)c1c(O)c(OC)cc(O)c1C3=O readout_name=growth experimental_result=0.808
compound=C=CCn1c(C)nc2cc(Nc3nc(Nc4ccc5nc(C)n(CC=C)c5c4)nc4ccccc34)ccc21 readout_name=growth experimental_result=89.3
compound=C[C@@H]1C[C@H](N)C[C@H](c2ccncc2NC(=O)c2ccc(F)c(-c3c(F)cccc3F)n2)C1 readout_name=growth experimental_result=25.3
